experiment: Tolerability after oral or intravenous administration; design: species or system mouse (Swiss albino); conditions: mouse, in vivo, iv, 7 days observation; read-out: Tolerability, dose
readout_label: MTD at 168 h

Worked cases, MTD at 168 h given:
COc1ccc(OCC(O)CNC2CCc3cc(OC)c(OC)cc3C2)cc1 (stereo not shown) : > 20 mg/kg
COc1cc2c(cc1OC)CC(N(CC1CC1)CC1CC1)CC2 (stereo not shown) : > 4 mg/kg
CCN(CC(O)c1ccccc1)C1CCc2cc(OC)c(OC)cc2C1 (stereo not shown) : > 20 mg/kg

Q) Please look up its MTD at 168 h: COc1cc2c(cc1OC)CC(NCC(O)c1ccc(C)cc1)CC2 (stereo not shown)
A) > 20 mg/kg
